System: UACC-257 melanoma
Assay: NCI-60 one-dose screen, 48 h
Settings: 10 µM
Compounds without any hit were thinned out: in the full panel of roughly 83,000, 20% have a hit. Calls of active or inactive are those of the source. The calls were made as follows: active = growth percent below 10; inactive = the rest.
Outcome codes: yes (1) (active), no (0) (inactive)

1) O=C(Nc1ccc(Oc2ccc(Nc3nc4ccccc4s3)cc2)cc1)Nc1ccc(Cl)c(Cl)c1; no (0)
2) CCCCCc1cc[n+](CC(=O)c2ccc(Cl)cc2)cc1; no (0)
3) CCOC(=O)c1c(Cl)c2c(n1Cc1cccc(OC)c1)-c1oncc1CC2; no (0)
4) O=C(Nc1cccc(Cl)c1)Nc1cc2ncncc2cc1OCc1cccc(F)c1; yes (1)
5) Cc1cccc2c1O/C(=C\c1ncc([N+](=O)[O-])n1C)C2=O; yes (1)
6) O=c1ccc2nc(-c3ccccc3)nn(-c3ccccc3)c-2c1; yes (1)
7) CN(C)c1ccc2c(c1)OC(N)=C(C#N)C2c1ccc2c(c1)CCCN2C (configuration not stated); no (0)
8) CCOc1cc(Br)c(C(C)NC(=O)c2cccc(OC)c2)cc1OCC (configuration not stated); yes (1)
9) Cc1ccc(S(=O)(=O)N2CCc3ccccc3CC2)cc1; no (0)
10) COc1ccccc1S(=O)(=O)Nc1ccc2c(c1)CN(C)C(=O)N2; no (0)
11) CCCCCCCCCCCC(c1ccccc1)N(C)C (configuration not stated); no (0)
12) NCCNc1ccc2cc(-c3nc4ccccc4[nH]3)c(=O)oc2c1; no (0)
13) NC(N)=NS(=O)(=O)c1ccc(Nc2ccc3nnc(-c4ccncc4)n3n2)cc1; no (0)
14) O=c1[nH]c(=O)n(C2C[C@@H](O)[C@@H](CO)O2)cc1F (some centres not stated); no (0)
15) CCCOCC(O)CNCCN (configuration not stated); no (0)
16) COc1cc(-c2nc3ccccc3[nH]2)ccc1OCC(=O)N=Nc1c(O)[nH]c2ccccc12; no (0)
17) Cc1cc(C)c2c(Nc3ncnc4c3sc3nc(C)cc(C)c34)n[nH]c2n1; no (0)
18) CCc1c(C)[nH]c(=O)c(C(N)=O)c1C#N; no (0)
19) Oc1[nH]c2ccccc2c1/C=c1/cc2c(c(-c3ccc(C(F)(F)F)cc3)n1)=Nc1ccccc1-2; no (0)
20) O=C(CSc1nnc(-c2ccc(Cl)cc2)o1)c1ccccc1; no (0)
21) c1ccc(CNc2nc(Nc3ccc(-c4nc5ccccc5[nH]4)cc3)c3cn[nH]c3n2)cc1; yes (1)
22) COCCOC(=O)NC(=O)Nc1ccc(C(=O)c2ccc(Cl)cc2)cc1; no (0)
